Test system: 786-0 renal
Protocol: NCI-60 one-dose screen, 48 h
Experimental Context: 10 µM unless noted
This is part of a sample that, as a whole, favours compounds with a hit. Of some 83,000 tested, about 20% had one in any assay. The source made the active and inactive calls. Rule for the calls: active = growth percent below 10; inactive = the rest.
Choose one outcome from this list and give only that: active, inactive

Dear all, I need the recorded test outcome for CCCCCC1CCCCN1C(=O)OCC (centres undefined) , thank you.
inactive

Dear all, I need the recorded test outcome for `COc1cc(-c2cc3ncccc3c3[nH]c(=O)c4cccnc4c23)cc(OC)c1OC` , thank you.
inactive

Dear all, I need the recorded test outcome for C/C(=N\NC(=O)C(C)SC(C)C(=O)N/N=C(\C)c1cccnc1)c1cccnc1 (centres undefined) , thank you.
inactive

Dear all, I need the recorded test outcome for `Cc1ccc(Nc2c(C(N)=O)cnc3ccc(S(=O)(=O)Nc4cc(C)on4)cc23)cc1` , thank you.
inactive

Dear all, I need the recorded test outcome for `Nc1ccc(Cl)cn1` , thank you.
inactive

Dear all, I need the recorded test outcome for `Cc1cccc(C)c1NC(=O)CSC(=S)N1CCN(CCOCCO)CC1` , thank you.
inactive

Dear all, I need the recorded test outcome for `CC1(n2nnnc2N2CCCN(c3ncccc3N)CC2)CCC1` , thank you.
inactive

Dear all, I need the recorded test outcome for CCOC(=O)C1OC1(c1ccccc1)c1ccccc1 (centres undefined) , thank you.
inactive

Dear all, I need the recorded test outcome for `Cc1ccncc1C(=O)O` , thank you.
inactive

Dear all, I need the recorded test outcome for `COc1ccc(-c2nc3c(c(C)nn3-c3ccc(F)cc3)c(=O)[nH]2)cc1` , thank you.
inactive

Dear all, I need the recorded test outcome for COc1cccc2c1C(=O)c1c(O)c3c(c(O)c1C2=O)C[C@@](O)(C(=O)CO)C[C@@H]3OC1C[C@H](N)[C@H](O)[C@H](C)O1 (some centres undefined) , thank you.
active

Dear all, I need the recorded test outcome for `C=C1C(=O)O[C@H]2[C@H]1CC/C(COC(=O)N[C@H](Cc1c[nH]c3ccccc13)C(=O)OC)=C\CC[C@@]1(C)O[C@@H]21` , thank you.
active

Dear all, I need the recorded test outcome for `C=C(C)[C@@H]1CC[C@]2(/C=N/Nc3ccncc3)CC[C@]3(C)[C@H](CC[C@@H]4[C@@]5(C)CCCNC(C)(C)[C@@H]5CC[C@]43C)[C@@H]12` , thank you.
inactive

Dear all, I need the recorded test outcome for `Cc1ccc(Sc2sc(-c3ccccc3)nc2[P+](c2ccccc2)(c2ccccc2)c2ccccc2)cc1` , thank you.
active

Dear all, I need the recorded test outcome for `Fc1ccc2[nH]cc(-c3nc(-c4c[nH]c5ncccc45)cs3)c2c1` , thank you.
inactive

Dear all, I need the recorded test outcome for `COc1cccc(-c2nn(-c3ccccc3)cc2-c2ccnc(NCCCNS(=O)(=O)c3ccc(C(F)(F)F)cc3)c2)c1` , thank you.
inactive

Dear all, I need the recorded test outcome for `COC(=O)[C@]12CC[C@@H](C(=O)/C=C/c3cccnc3)[C@@H]1[C@H]1CC[C@@H]3[C@@]4(C)C/C(=C/c5cccnc5)C(=O)C(C)(C)[C@@H]4CC[C@@]3(C)[C@]1(C)CC2` , thank you.
active

Dear all, I need the recorded test outcome for `CCN(CC)c1ccc(/C=C/c2cc(C)c3ccccc3n2)cc1` , thank you.
inactive

Dear all, I need the recorded test outcome for `c1cc(N2CCCC2)c2nc(-c3[nH]ncc3Nc3ncnc4[nH]ccc34)[nH]c2c1` , thank you.
active

###

Test system: BT-549 breast
Protocol: NCI-60 one-dose screen, 48 h (100 = growth as untreated, 0 = no growth, -100 = all killed)
Experimental Context: 10 µM unless noted
Protocol: Growth inhibition of the BT-549 human tumor cell line is measured as a screen for anti-cancer activity. Cells are grown in 96 well plates and exposed to the test compound for 48 hours. Compounds are tested at a single concentration, which is 10^-5 M for most compounds. The reported endpoint is percent growth (GI% or GIPRCNT), where numbers from 0 - 100% represent growth inhibition, and numbers from -100% - 0 represent cell death. For example, a value of 40 represents 60% growth inhibition. […]
This is part of a sample that, as a whole, favours compounds with a hit. Of some 83,000 tested, about 20% had one in any assay. Active and inactive are the calls of the source. How the source made its calls: active means growth percent below 10; inactive means the rest.
Experimental Readout: growth

Recorded growth for `Nc1c(C(=O)Nc2cccc(Cl)c2)sc2ncc(Cl)cc12` on BT-549 breast was 68.8% (inactive)

Recorded growth for `Cc1ccc(-c2nc([P+](c3ccccc3)(c3ccccc3)c3ccccc3)c(N3CCOCC3)o2)cc1` on BT-549 breast was -13% (active)

Recorded growth for CCC(CC)C(=O)OC(C)COc1ccc(C(C)(C)C)cc1 (stereo not drawn) on BT-549 breast was 109% (inactive)

Recorded growth for `C#CCn1c2c(c3ccccc31)C[C@]1(C)[C@H]3CC[C@@H]4[C@@H]5C(=CCC[C@H]5C(=C)C)CC[C@@]4(C)[C@]3(C)CC[C@H]1C2(C)C` on BT-549 breast was 100% (inactive)

Recorded growth for `COc1cccc(-c2nn(-c3ccccc3)cc2-c2ccnc(NCCCNS(=O)(=O)c3cccc(F)c3)c2)c1` on BT-549 breast was 24.3% (inactive)

Recorded growth for `CC(=O)O[C@H]1CC[C@@]2(C)C(=CC[C@@H]3[C@@H]2CC[C@]2(C)C(=O)N(O)C(=O)C[C@@H]32)C1` on BT-549 breast was 91.9% (inactive)

Recorded growth for `Cc1cc(Nc2ccc(F)cc2)nc(N2CCN(c3ccnc4cc(Cl)ccc34)CC2)n1` on BT-549 breast was 47.5% (inactive)

Recorded growth for `C=C(C)[C@@H]1CC[C@]2(C(=O)N3CCN(C)CC3)CC[C@]3(C)[C@H](CC[C@@H]4[C@@]5(C)C/C(=C/c6ccc(C(F)(F)F)cc6)C(=O)C(C)(C)[C@@H]5CC[C@]43C)[C@@H]12` on BT-549 breast was 102% (inactive)

Recorded growth for `CN1CCN(c2nc(-c3cccc4ccccc34)nc3sc4c(c23)CCCCCC4)CC1` on BT-549 breast was 91.9% (inactive)

Recorded growth for `C=C(C)[C@@H]1CC[C@]2(C(=O)NNC(=O)c3cccnc3)CC[C@]3(C)[C@H](CC[C@@H]4[C@@]5(C)CCCNC(C)(C)[C@@H]5CC[C@]43C)[C@@H]12` on BT-549 breast was 82.3% (inactive)

Recorded growth for NC1=C(C/C(N)=N\O)C(c2ccccc2Cl)c2c(ccc3ccccc23)O1 (stereo not drawn) on BT-549 breast was 89.3% (inactive)

Recorded growth for `C/C(=N\Nc1cc(C)c2cc(C)ccc2n1)c1ccccn1` on BT-549 breast was 21.2% (inactive)

Recorded growth for `Cn1c2c(Cl)c(Cl)ccc2c2c(C#N)c[nH]c(=O)c21` on BT-549 breast was 120% (inactive)

Recorded growth for `c1ccc2[nH]c(-c3ccc(Nc4nc(N5CCCCC5)nc(N5CCOCC5)n4)cc3)nc2c1` on BT-549 breast was 23.1% (inactive)

Recorded growth for `O=c1[nH]ncc(Br)c1Br` on BT-549 breast was 83.2% (inactive)

Recorded growth for `Cn1cc(-c2nc(-c3c[nH]c4ncccc34)cs2)c2cc(Cl)ccc21` on BT-549 breast was 70.6% (inactive)

Recorded growth for `Fc1ccc(Nc2nnc(-c3ccc(Cl)cc3)o2)cc1` on BT-549 breast was 99% (inactive)

Recorded growth for `Cc1ccc2oc(=O)cc(-c3sc(N4CCCCC4)nc3-c3ccccc3)c2c1` on BT-549 breast was 91.2% (inactive)

###

Test system: HCC-2998 colon
Protocol: NCI-60 one-dose screen, 48 h
Experimental Context: 10 µM unless noted
The panel holds about 83,000 compounds, 20% with a hit somewhere; the sample as a whole holds those more often. Activity calls are given as the source filed them. How the source made its calls: active means growth percent below 10; inactive means the rest.
Choose one outcome from this list and give only that: active, inactive

Dear all, I need the recorded test outcome for `COc1ccc(-c2cc(=O)oc3ccc(Cl)cc23)cc1F` , thank you.
inactive

Dear all, I need the recorded test outcome for Oc1ccc(CCC2CCCC(CCc3ccc(OCCF)cc3)N2)cc1 (centres undefined) , thank you.
inactive

Dear all, I need the recorded test outcome for `C=C(C)[C@@H]1CC[C@]2(C(=O)NNC(=O)c3cccnc3)CC[C@]3(C)[C@H](CC[C@@H]4[C@@]5(C)CCCNC(C)(C)[C@@H]5CC[C@]43C)[C@@H]12` , thank you.
inactive

Dear all, I need the recorded test outcome for `NC(N)=N/N=C/c1ccc(-c2ccc(-c3ccc(Cl)cn3)s2)cc1` , thank you.
inactive

Dear all, I need the recorded test outcome for CCCCC/C(=C\c1ccccc1)C1OC(C)C(C)O1 (centres undefined) , thank you.
inactive

Dear all, I need the recorded test outcome for `Cn1cc(-c2csc(-c3cn(CCNC(=O)OC(C)(C)C)c4ccc(F)cc34)n2)c2cccnc21` , thank you.
inactive

Dear all, I need the recorded test outcome for `CCCCn1c(-c2ccc(O)cc2)cn2c3c(=O)[nH]c(=O)n(C)c3nc12` , thank you.
inactive

Dear all, I need the recorded test outcome for `COc1cc(C(=O)/C=C/c2cc(-c3ccc4c(c3)OCO4)n[nH]2)cc(OC)c1OC` , thank you.
inactive

Dear all, I need the recorded test outcome for `O=C1Nc2ccccc2/C1=C/c1cn(CCCn2c3ccccc3c(=O)c3ccccc32)c2ccccc12` , thank you.
inactive

Dear all, I need the recorded test outcome for `O=C1c2ccccc2C(=Cc2ccccc2)c2ccccc21` , thank you.
active

Dear all, I need the recorded test outcome for `Cc1cc(C=O)c(C)c2c1[nH]c1ccccc12` , thank you.
inactive

Dear all, I need the recorded test outcome for `Clc1cc(Cl)cc(Nc2ccc3c(OCCCN4CCOCC4)cccc3n2)c1` , thank you.
inactive

Dear all, I need the recorded test outcome for CC(CNc1nc(Nc2ccc(Cl)c(Cl)c2)nc(C(Cl)(Cl)Cl)n1)N(C)C (centres undefined) , thank you.
active

Dear all, I need the recorded test outcome for `O=C1OC(c2ccc(Cl)c(Cl)c2)=C/C1=C/c1cccc([N+](=O)[O-])c1` , thank you.
inactive

Dear all, I need the recorded test outcome for `COc1cccc(-c2nn(-c3ccccc3)cc2-c2ccnc(NCCCNS(=O)(=O)c3ccc(Cl)cc3)c2)c1` , thank you.
inactive

Dear all, I need the recorded test outcome for COC(=O)C(N)CSC(c1ccccc1)(c1ccccc1)c1ccccc1 (centres undefined) , thank you.
inactive

Dear all, I need the recorded test outcome for `COc1cc(-c2c(C#N)c(-c3cccs3)nc3c2c(-c2ccccc2)nn3-c2ccccc2)ccc1O` , thank you.
inactive

Dear all, I need the recorded test outcome for `O=C1c2cc3c(cc2-c2c1c1ccc(F)cc1c(=O)n2CCCN1CCOCC1)OCO3` , thank you.
inactive

Dear all, I need the recorded test outcome for `COc1cc(/C=N/NC(=S)NNC(=S)NC2CCCCC2)cc(OC)c1OC` , thank you.
inactive

Dear all, I need the recorded test outcome for `Nc1ncnc2nc(Br)[nH]c12` , thank you.
inactive

Dear all, I need the recorded test outcome for `COC(=O)CNc1nc(N(C)O)nc(N(C)O)n1` , thank you.
inactive

Dear all, I need the recorded test outcome for `C=C(C)[C@@H]1CC[C@]2(c3nnc(-c4ccncc4)o3)CC[C@]3(C)[C@H](CC[C@@H]4[C@@]5(C)CCC(=O)NC(C)(C)[C@@H]5CC[C@]43C)[C@@H]12` , thank you.
inactive

Dear all, I need the recorded test outcome for `COc1ccc(NC(=S)N/N=C/c2ccccc2SSCCC(=O)OC[C@H]2O[C@H](O)[C@H](O)[C@@H](O)[C@@H]2O)cc1` , thank you.
inactive

Dear all, I need the recorded test outcome for `COc1ccc(OC)c(-c2c(C#N)c(-c3ccco3)nc3c2c(-c2ccccc2)nn3-c2ccccc2)c1` , thank you.
inactive

Dear all, I need the recorded test outcome for `C[C@H]1[C@H]2C3=CC[C@@H]4[C@@]5(C)C/C(=C/c6ccco6)C(=O)C(C)(C)[C@@H]5CC[C@@]4(C)[C@]3(C)CC[C@@]2(C(=O)N2CCOCC2)CC[C@@H]1C` , thank you.
inactive

Dear all, I need the recorded test outcome for `CCCCCCCCNc1cccc2c1C(=O)c1ccccc1C2=O` , thank you.
inactive

Dear all, I need the recorded test outcome for `CC(C)(C)n1cc(-c2ccnc(NCCCNS(=O)(=O)c3ccc(Cl)cc3)c2)c(-c2cccc(F)c2)n1` , thank you.
inactive

Dear all, I need the recorded test outcome for `O=[N+]([O-])c1cccc(/C=N\Nc2ccccc2)c1` , thank you.
inactive

Dear all, I need the recorded test outcome for `COc1cc(-c2cc(-c3nc4ccccc4[nH]3)[nH]n2)cc(OC)c1OC` , thank you.
inactive

Dear all, I need the recorded test outcome for `Cc1cc(Nc2ccc(F)cc2)nc(N2CCN(c3ccnc4cc(Cl)ccc34)CC2)n1` , thank you.
inactive

Dear all, I need the recorded test outcome for `Brc1ccc(Cn2nnnc2-c2ccn(-c3ccccc3)n2)cc1` , thank you.
inactive

Dear all, I need the recorded test outcome for `COc1ccc(/C(=C\c2ccc3c(c2)OCO3)C(=O)Nc2nc3ccccc3s2)cc1OC` , thank you.
inactive

Dear all, I need the recorded test outcome for `Cc1oc(-c2ccccc2Cl)cc1C(=O)Nc1ccc(S(N)(=O)=O)cc1` , thank you.
inactive

Dear all, I need the recorded test outcome for `O=S(=O)(NCCNc1cc(-c2cn(-c3ccccc3)nc2-c2cccc(O)c2)ccn1)c1ccc(Br)cc1` , thank you.
active

Dear all, I need the recorded test outcome for `Cn1cc(-c2csc(-c3c[nH]c4ccccc34)n2)c2cccnc21` , thank you.
inactive

Dear all, I need the recorded test outcome for `O=[N+]([O-])c1cc(S(=O)(=O)c2ccc(F)c([N+](=O)[O-])c2)ccc1F` , thank you.
inactive

Dear all, I need the recorded test outcome for `COc1cccc(-c2nn(-c3ccccc3)cc2-c2ccnc(NCCCNS(=O)(=O)c3cccc(F)c3)c2)c1` , thank you.
inactive

Dear all, I need the recorded test outcome for `COc1ccc2[nH]c(-c3ccc(Cl)cc3)cc(=O)c2c1` , thank you.
inactive

Dear all, I need the recorded test outcome for `Clc1ccccc1-c1nc(Nc2nc3ccccc3s2)nc(C(Cl)(Cl)Cl)n1` , thank you.
inactive
